Collected OD450 values appear next to each entry.
experimental system: T1, recombinant protein CDH6 (UniProt P55285 54-615)
T1 construct: also called CDH6 recombinant protein; CDH6 antigen
T1 sequence (looked up): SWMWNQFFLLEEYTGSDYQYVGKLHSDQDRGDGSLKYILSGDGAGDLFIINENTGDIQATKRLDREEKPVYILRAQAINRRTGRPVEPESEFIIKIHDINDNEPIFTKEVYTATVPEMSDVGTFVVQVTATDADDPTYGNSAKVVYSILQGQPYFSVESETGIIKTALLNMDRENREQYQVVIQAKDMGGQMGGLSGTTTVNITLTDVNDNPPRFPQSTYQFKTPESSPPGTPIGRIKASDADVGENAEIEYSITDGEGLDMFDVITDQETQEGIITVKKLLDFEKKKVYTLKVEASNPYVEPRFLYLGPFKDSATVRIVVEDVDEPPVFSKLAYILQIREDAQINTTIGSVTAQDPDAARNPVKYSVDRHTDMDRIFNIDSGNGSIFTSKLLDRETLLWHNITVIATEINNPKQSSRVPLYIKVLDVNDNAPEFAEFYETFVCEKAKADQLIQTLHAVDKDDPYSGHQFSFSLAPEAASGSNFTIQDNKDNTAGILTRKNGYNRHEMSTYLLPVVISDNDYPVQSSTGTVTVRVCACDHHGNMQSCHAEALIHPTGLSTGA
measurement notes: ELISA, CDH6 coated; antibody 6.25 ng/mL
Use OD450 as the unit, but write only the number.

Below, 3 binders whose answers are already recorded.
binder="CL069707 antibody (antibody, V domains shown, Mouse monoclonal antibody from hybridoma, purified from ascites with Protein A/G; also called #23; No. 23) VH: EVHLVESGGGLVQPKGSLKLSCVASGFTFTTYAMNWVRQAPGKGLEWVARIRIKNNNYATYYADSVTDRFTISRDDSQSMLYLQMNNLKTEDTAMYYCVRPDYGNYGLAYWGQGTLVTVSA VL: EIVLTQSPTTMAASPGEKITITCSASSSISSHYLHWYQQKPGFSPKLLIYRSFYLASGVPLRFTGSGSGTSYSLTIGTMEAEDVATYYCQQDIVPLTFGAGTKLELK" unit_symbol=OD450 reported_measurement=1.01
binder="CL069066 antibody (antibody, V domains shown, Mouse monoclonal antibody from hybridoma, purified from ascites with Protein A/G; also called #4; No. 4) VH: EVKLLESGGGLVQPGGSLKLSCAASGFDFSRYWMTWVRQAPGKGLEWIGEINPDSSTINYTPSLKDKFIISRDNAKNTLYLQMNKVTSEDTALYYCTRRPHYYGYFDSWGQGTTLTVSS VL: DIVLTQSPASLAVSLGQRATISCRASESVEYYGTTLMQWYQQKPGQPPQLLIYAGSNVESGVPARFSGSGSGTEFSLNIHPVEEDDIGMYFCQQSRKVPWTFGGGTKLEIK" unit_symbol=OD450 reported_measurement=0.577
binder="CL069463 antibody (antibody, V domains shown, Mouse monoclonal antibody from hybridoma, purified from ascites with Protein A/G; also called #13; No. 13) VH: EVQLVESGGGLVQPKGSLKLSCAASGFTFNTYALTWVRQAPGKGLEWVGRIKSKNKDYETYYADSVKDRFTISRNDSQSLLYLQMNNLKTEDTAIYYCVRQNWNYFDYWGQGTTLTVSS VL: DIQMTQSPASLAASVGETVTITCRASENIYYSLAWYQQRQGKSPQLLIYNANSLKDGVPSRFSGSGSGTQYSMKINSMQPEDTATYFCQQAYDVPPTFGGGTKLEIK" unit_symbol=OD450 reported_measurement=0.975

OD450 measured on CL069439 antibody (antibody, V domains shown, Mouse monoclonal antibody from hybridoma, purified from ascites with Protein A/G; also called #16; No. 16) VH: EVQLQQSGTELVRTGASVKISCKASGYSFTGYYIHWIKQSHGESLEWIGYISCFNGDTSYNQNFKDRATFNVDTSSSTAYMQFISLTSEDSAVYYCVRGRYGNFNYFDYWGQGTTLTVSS VL: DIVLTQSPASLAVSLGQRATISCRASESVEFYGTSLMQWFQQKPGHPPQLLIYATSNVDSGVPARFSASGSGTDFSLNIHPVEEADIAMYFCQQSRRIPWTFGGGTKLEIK = 2.82
